Property: In vitro activity compared with native peptide (%) vs. GIP; scope: individual binders
- Target of assay: T1, human GIP receptor (human, UniProt P48546 22-466)
- T1 sequence (looked up): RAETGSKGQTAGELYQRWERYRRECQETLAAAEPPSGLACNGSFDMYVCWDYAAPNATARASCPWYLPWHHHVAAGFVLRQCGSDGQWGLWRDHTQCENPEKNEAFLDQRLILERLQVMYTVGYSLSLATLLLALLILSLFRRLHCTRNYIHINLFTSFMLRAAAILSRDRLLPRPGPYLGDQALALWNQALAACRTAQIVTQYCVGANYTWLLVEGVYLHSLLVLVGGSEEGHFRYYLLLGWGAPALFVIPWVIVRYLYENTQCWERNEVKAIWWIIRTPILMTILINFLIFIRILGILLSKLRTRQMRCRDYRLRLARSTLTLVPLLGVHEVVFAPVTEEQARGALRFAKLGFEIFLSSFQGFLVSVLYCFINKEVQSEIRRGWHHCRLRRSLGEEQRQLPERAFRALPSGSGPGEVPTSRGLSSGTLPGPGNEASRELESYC
- Measurement notes: cell-based or functional assay
Bridges are numbered along the chain shown (N, C = ends). Where no end group is shown, it is not given here. [ ]: non-standard residue; d: D form. The star is where a group is joined. Acetyl(2-(4-imidazolyl)) = O=C(Cc1c[nH]cn1)*; Aib = CC(C)(N)C(=O)O

Below, 4 binders whose answers are already recorded.
- {Acetyl(2-(4-imidazolyl))}-GQGTFTSDLSKQMDSEAQQLFIEWLKNGGPSSGAPPPSHG [Triple agonist of SEQ ID NO: 16]: < 0.1%
- [Acetyl(2-(4-imidazolyl))]GQGTFTSDLSKQMDSERAREFIEWLKNTGPSSGAPPPSHG [Triple agonist of SEQ ID NO: 18]: < 0.1%
- {Acetyl(2-(4-imidazolyl))}-[Aib]QGTFTSDYSKYLDEKRQKEFVQWLLDTC (bridge 15-19) [Triple agonist of SEQ ID NO: 82]: < 0.1%
- H[Aib]QGTFTSDKSKYLDECAAQDFVQWLLDGGPSSGAPPPS [Triple agonist of SEQ ID NO: 41]: < 0.1%

Shift focus to the following entry.
Query :: Look up In vitro activity compared with native peptide (%) vs. GIP of H[Aib]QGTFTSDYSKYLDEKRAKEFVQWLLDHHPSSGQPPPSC (bridge 16-20) [Triple agonist of SEQ ID NO: 50] and report it.
Result :: 2.7%
